Give measured Kd for each item. Keep answers brief.
# system: HLA-A*03:01
# method-summary: IEDB peptide-MHC binding, purified MHC/competitive/radioactivity; filed as Kd, often an IC50 or EC50 that approximates it; bounds were set here for any values at or beyond the usual limits of such assays
# assay-conditions: source organism: Vaccinia virus Copenhagen
Give bare numbers, in nM.

SVLDIISSK :: 23.4

Now for another entry.
Ask | Query: Kd; subject: "PVYISQFSYK"
Reply | 1.26

---

Give measured pKd for each item. Keep answers brief.
# system: HLA-A*02:03
# method-summary: IEDB peptide-MHC binding, purified MHC/competitive/radioactivity; filed as Kd, often an IC50 or EC50 that approximates it; bounds were set here for any values at or beyond the usual limits of such assays
# assay-conditions: source organism: Trypanosoma cruzi
Answers are plain numbers, as −log10 of the molar value.

Answered cases to consult:
LLGLWGIAAS :: 6.17
GLLPSLLLLL :: 8.74
GLLPLLLLLL :: 7.05
FVNYNFTLV :: 9.12
LLGLWGLATA :: 8.86

Now for another entry.
Ask | Query: pKd; subject: "LLGLWGFAAA"
Reply | 9.26

---

# system: HLA-A*30:02
# method-summary: IEDB peptide-MHC binding, purified MHC/competitive/radioactivity; filed as Kd, often an IC50 or EC50 that approximates it; bounds were set here for any values at or beyond the usual limits of such assays
# assay-conditions: source organism: Dengue virus 1 Brazil/97-11/1997
readout: Kd (nM)
Numbers only, in nM.

Ask | Query: Kd; subject: "IGNENYLDY"
Reply | 956

---

# system: HLA-B*40:01
# method-summary: IEDB peptide-MHC binding, purified MHC/competitive/fluorescence; filed as Kd, often an IC50 or EC50 that approximates it; bounds were set here for any values at or beyond the usual limits of such assays
# assay-conditions: source organism: Giardia lamblia ATCC 50803
readout: Kd

Ask | Query: Kd; subject: "MTFPLHFRS"
Reply | ≥ 5 µM

---

# system: HLA-B*15:42
# method-summary: IEDB peptide-MHC binding, purified MHC/competitive/fluorescence; filed as Kd, often an IC50 or EC50 that approximates it; bounds were set here for any values at or beyond the usual limits of such assays
# assay-conditions: source organism: Yersinia pseudotuberculosis IP 31758
pKd: −log10 of the molar value.
readout: pKd

Ask | Query: pKd; subject: "RQIRMTSTI"
Reply | ≤ 5.30

---

# system: HLA-A*03:01
# method-summary: IEDB peptide-MHC binding, purified MHC/direct/fluorescence; filed as Kd, often an IC50 or EC50 that approximates it; bounds were set here for any values at or beyond the usual limits of such assays
# assay-conditions: source organism: Giardia lamblia ATCC 50803
Give measured Kd for each item. Keep answers brief.

DIIRAHPWF :: 8.16 µM
SYPPPPASF :: ≥ 20 µM

Please state Kd for every sequence in the list that follows.
1. MTFPLHFRS
2. ETKKRMDYF

Reply |
1. ≥ 20 µM
2. ≥ 20 µM

---

# system: HLA-B*83:01
# method-summary: IEDB peptide-MHC binding, purified MHC/competitive/fluorescence; filed as Kd, often an IC50 or EC50 that approximates it; bounds were set here for any values at or beyond the usual limits of such assays
# assay-conditions: source organism: Rickettsia bellii RML369-C
pKd: −log10 of the molar value.
readout: pKd

Ask | Query: pKd; subject: "FAYKTGSSM"
Reply | ≤ 5.30

Source of measurements: the Immune Epitope Database (IEDB)
